Molecular target: CDK2 (Homo sapiens, UniProt P24941)
Assay: CDK2 inhibition
Assay type: biochemical
Reported IC50 values follow for various compounds
Answer by giving the amount and then stating its unit.

Cc1nc2cc(C(=O)N3CCN(C)CC3)ccn2c1-c1ccnc(Nc2ccc(C(=O)Nc3ccccc3N)cc2)n1    4.64 µM
Nc1ccccc1NC(=O)c1ccc(Nc2ncc(F)c(-c3cnc4ccccn34)n2)cc1    0.06 µM
Cc1nc2ccc(Br)cn2c1-c1ccnc(Nc2ccc(C(=O)Nc3ccccc3N)cc2)n1    0.14 µM

Check the records and state IC50 for `Cc1nc2ccccn2c1-c1ccnc(Nc2ccc(C(=O)NO)cn2)c1`
0.15 µM

Check the records and state IC50 for `Cc1nc2cc(C(F)(F)F)ccn2c1-c1ccnc(Nc2ccc(C(=O)NO)cc2)n1`
0.037 µM

Check the records and state IC50 for `O=C(NO)c1ccc(Nc2nccc(-c3cnc4ccccn34)n2)cc1`
0.0393 µM

Check the records and state IC50 for `Cc1nc2cccnn2c1-c1ccnc(Nc2ccc(C(=O)Nc3ccccc3N)cc2)n1`
0.59 µM

Check the records and state IC50 for `Cc1nc2ccc(C(=O)NCCN(C)C)cn2c1-c1ccnc(Nc2ccc(C(=O)Nc3ccccc3N)cc2)n1`
1.88 µM

Check the records and state IC50 for `COc1ccc2nc(C)c(-c3ccnc(Nc4ccc(C(=O)NO)cc4)n3)n2c1`
0.08 µM

Check the records and state IC50 for `O=C(NO)c1ccc(Nc2nccc(-c3c(C(F)(F)F)nc4ccccn34)n2)cc1`
0.18 µM

Check the records and state IC50 for `COc1ccn2c(-c3ccnc(Nc4ccc(C(=O)Nc5ccccc5N)cc4)n3)c(C(F)(F)F)nc2c1`
0.14 µM

---

Target: HDAC 1 (Homo sapiens)
Sequence (Q13547 whole entry, species assumed): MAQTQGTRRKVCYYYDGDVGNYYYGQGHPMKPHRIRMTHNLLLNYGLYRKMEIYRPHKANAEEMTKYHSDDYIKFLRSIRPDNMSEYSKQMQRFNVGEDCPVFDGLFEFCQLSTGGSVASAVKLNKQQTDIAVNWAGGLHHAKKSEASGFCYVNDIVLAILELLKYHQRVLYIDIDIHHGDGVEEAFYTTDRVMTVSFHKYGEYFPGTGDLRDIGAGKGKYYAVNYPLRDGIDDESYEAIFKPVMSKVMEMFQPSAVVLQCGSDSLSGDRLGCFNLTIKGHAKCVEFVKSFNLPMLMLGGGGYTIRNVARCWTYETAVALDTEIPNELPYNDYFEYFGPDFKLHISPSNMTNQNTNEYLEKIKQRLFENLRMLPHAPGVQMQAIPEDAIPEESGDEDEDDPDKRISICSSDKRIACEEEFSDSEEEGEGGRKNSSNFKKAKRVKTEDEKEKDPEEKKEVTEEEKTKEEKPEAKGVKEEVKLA
Assay: HDAC 1 inhibition assay with about 3 hours enzyme/compound preincubation (fluorophore/quencher peptide substrate)
Format: biochemical
Conditions: 3-hour preincubation of enzyme with compound; read-out: HDAC 1 inhibitory activity (IC50 [μM]) (3-hour preincubation)
assay-readout: IC50 (µM)
Write the value in µM as a bare number.

Cc1nc2cc(C(F)(F)F)ccn2c1-c1ccnc(Nc2ccc(C(=O)NO)cc2)n1 [Example 9]    0.0392
Cc1nc2ccccn2c1-c1ccnc(Nc2ncc(C(=O)NO)s2)c1 [Example 73]    0.185
Cc1nc2ccccn2c1-c1ccnc(Nc2nnc(C(=O)NO)s2)c1 [Example 75]    0.669
Cc1nc2ccccn2c1-c1ccnc(Nc2ncc(C(=O)Nc3ccccc3N)s2)n1 [Example 63]    0.224
Cc1nc2ccc(C(=O)NCCN3CCOCC3)cn2c1-c1ccnc(Nc2ccc(C(=O)Nc3ccccc3N)cc2)n1 [Example 40]    0.347

Check the records and state IC50 for COc1ccn2c(-c3ccnc(Nc4ccc(C(=O)Nc5ccccc5N)cc4)n3)c(C(F)(F)F)nc2c1 [Example 48]
0.06

Check the records and state IC50 for O=C(NO)c1ccc(N(CC(F)(F)F)c2nccc(-c3cnc4ccccn34)n2)cc1 [Example 57]
0.147

Check the records and state IC50 for COc1ccn2c(-c3ccnc(Nc4ccc(C(=O)NO)cc4)n3)c(C)nc2c1 [Example 13]
0.04

Check the records and state IC50 for Nc1ccccc1NC(=O)c1ccc(Nc2cc(-c3cnc4ccccn34)ncn2)cc1 [Example 55]
0.2

Check the records and state IC50 for Cc1nc2ccccn2c1-c1ccnc(Nc2ccc(C(=O)NO)cc2)c1 [Example 53]
0.021

Check the records and state IC50 for COCCOc1ccn2c(-c3ccnc(Nc4ccc(C(=O)Nc5ccccc5N)cc4)n3)c(C)nc2c1 [Example 31]
0.243

Check the records and state IC50 for Cc1nc2cnccn2c1-c1ccnc(Nc2ccc(C(=O)Nc3ccccc3N)cc2)n1 [Example 20]
0.165

Check the records and state IC50 for Cc1nc2ccccn2c1-c1ccnc(Nc2cnc(C(=O)NO)cn2)c1 [Example 76]
0.526

Check the records and state IC50 for Cc1nc2ccccn2c1-c1ccnc(Nc2cnc(C(=O)Nc3ccccc3N)cn2)n1 [Example 68]
0.0206

Check the records and state IC50 for Cc1nc2ccccn2c1-c1ccnc(Nc2ccc(C(=O)NO)cc2F)n1 [Example 33]
0.126
